Assay: Liver microsomal stability, human
Conditions: both, human, microsomes, Half-life, Control compound, Human liver microsomes

- compound: "C[C@]12CC[C@H]3[C@@H](CCC4=CC(=O)CC[C@@]43C)[C@@H]1CC[C@@H]2O [Testosterone, testosterone, reference compound]"
  half-life, min: 27

----------
Experiment: in vitro
Details: male, CD-1, mouse, microsomes, 20 min, 1 μM
Listing: % Remaining of Initial, 20 min of selected compounds

- compound: "CCCCCCCCCCCCCCCC(=O)NCCOC(=O)CCC(=O)OCC(COC(=O)CCCCCCC)OC(=O)CCCCCCC (stereo not drawn) [Compound I-3, PEA-Succinate-Glycerol-Di-Caprylic]"
  units.label: "%"
  relation.sign: "="
  % Remaining of Initial, 20 min: 83
- compound: "CCCCCCCCCCCCCCCC(=O)NCCOC(=O)CCC(=O)OC[C@H]1O[C@@](CO)(O[C@H]2O[C@H](CO)[C@@H](O)[C@H](O)[C@H]2O)[C@@H](O)[C@@H]1O [Compound I-7]"
  units.label: "%"
  relation.sign: "="
  % Remaining of Initial, 20 min: 1.2
- compound: "CCCCCCCCCCCCCCCC(=O)NCCOC(=O)CCC(=O)OCC(COC(=O)CCC)OC(=O)CCC (stereo not drawn) [Compound I-11]"
  units.label: "%"
  relation.sign: "<"
  % Remaining of Initial, 20 min: 1.0

----------
Test: Simulated gastric fluid (SGF) stability, with and without pepsin
Assay type: in vitro ADME
Conditions: pig, simulated gastric fluid with pepsin; SGF w/pepsin, pH 1.2, 2 μM
measured.attribute: half-life at 2 μM

- compound: "CCCCCCCCCCCCCCCC(=O)NCCOC(=O)CCC(=O)OCC(O)CO (stereo not shown)"
  measured.attribute: "half-life at 2 μM"
  experimental.value: "> 2 h"

----------
Test: in vivo
Conditions: male, Sprague-Dawley, rat, plasma, po, 10 mg/kg

- compound: "CCCCCCCCCCCCCCCC(=O)NCCO [PEA, palmitoylethanolamide]"
  units.label: "ng/mL"
  concentration at 2 hr: 5.3

----------
Test: in vitro
Conditions: both, human, s9, 20 min, 1 μM
Experimental: Reaction mixture, minus cofactors, was prepared as described below. Test article was added into the reaction mixture at a final concentration of 1 μM. […] Half-lives were calculated using GraphPad software, fitting to a single-phase exponential decay equation. Reaction mixture, minus cofactors, was prepared as described below. […] Half-lives were calculated using GraphPad software, fitting to a single-phase exponential decay equation. […]
Listing: % Remaining of Initial (n = 1), 20 min of selected compounds

- compound: "CC/C=C\\C/C=C\\C/C=C\\C/C=C\\C/C=C\\CCCC(=O)OCCNC(=O)CCCCCCCCCCCCCCC [Compound I-5]"
  relation.sign: "="
  % Remaining of Initial (n = 1), 20 min (%): 81
- compound: "CCCCCCCCCCCCCCCC(=O)NCCOC(=O)CCC(=O)OCC(COC(=O)CCC)OC(=O)CCC (stereo not shown) [Compound I-11]"
  relation.sign: "<"
  % Remaining of Initial (n = 1), 20 min (%): 1.0
- compound: "CCCCCCCCCCCCCCCC(=O)NCCOC(=O)CCC(=O)OC[C@H]1O[C@@](CO)(O[C@H]2O[C@H](CO)[C@@H](O)[C@H](O)[C@H]2O)[C@@H](O)[C@@H]1O [Compound I-7]"
  relation.sign: "<"
  % Remaining of Initial (n = 1), 20 min (%): 1.0
- compound: "CCCCCCCCCCCCCCCC(=O)NCCOC(=O)CCC(=O)OCC(O)CO (stereo not shown) [Compound I-9]"
  relation.sign: "<"
  % Remaining of Initial (n = 1), 20 min (%): 1.0
- compound: "CCCCC/C=C\\C/C=C\\CCCCCCCC(=O)OCCNC(=O)CCCCCCCCCCCCCCC [Compound I-6]"
  relation.sign: "="
  % Remaining of Initial (n = 1), 20 min (%): 102
- compound: "CCCCCCCCCCCCCCCC(=O)NCCOC(=O)CCC [Compound I-2]"
  relation.sign: "="
  % Remaining of Initial (n = 1), 20 min (%): 1.3
- compound: "CCCCCCCCCCCCCCCC(=O)NCCOC(=O)CCC(=O)OCC(COC(=O)CCCCCCC)OC(=O)CCCCCCC (stereo not shown) [Compound I-3, PEA-Succinate-Glycerol-Di-Caprylic]"
  relation.sign: "="
  % Remaining of Initial (n = 1), 20 min (%): 89
